Assign IC50 to each entry below.
Biological target: Dihydroorotate dehydrogenase (quinone), mitochondrial (Homo sapiens, UniProt Q02127)
Sequence (Q02127 whole entry): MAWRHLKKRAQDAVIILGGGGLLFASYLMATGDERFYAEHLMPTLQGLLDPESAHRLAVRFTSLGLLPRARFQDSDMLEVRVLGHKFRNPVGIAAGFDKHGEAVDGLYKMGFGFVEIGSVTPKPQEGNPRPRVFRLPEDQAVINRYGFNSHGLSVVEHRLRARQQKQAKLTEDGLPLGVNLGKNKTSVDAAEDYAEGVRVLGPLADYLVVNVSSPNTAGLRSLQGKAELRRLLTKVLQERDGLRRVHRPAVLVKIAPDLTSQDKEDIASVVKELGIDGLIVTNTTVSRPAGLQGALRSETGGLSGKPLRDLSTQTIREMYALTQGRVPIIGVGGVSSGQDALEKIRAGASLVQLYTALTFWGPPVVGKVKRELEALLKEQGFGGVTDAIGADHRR
Assay: Inhibition of N-terminal His10-tagged human DHODH (Met30 to Arg396) expressed in Escherichia coli BL21 (DE3) using dihydroorotate as substrate measured every 30 secs for 6 mins by DCIP dye-based assay

I have 4 compounds here; please give me IC50 for each one.
1. CCOC(=O)C1=C(Nc2ccc(Cl)c(C(F)(F)F)c2)SCC1=O
2. CCOC(=O)C1=C(Nc2ccccc2)SCC1=O
3. CCOC(=O)C1=C(Nc2ccc3c(c2)CCCC3)SCC1=O
4. CCCCNC(=O)C1=C(Nc2ccc3ccccc3c2)SCC1=O

1. > 50 µM
2. > 50 µM
3. 12 µM
4. > 50 µM

* * *

Can you tell me half-life for the items I'm about to list?
Assay: Half life in Sprague-Dawley rat at 1 mg/kg, iv
Type: ADME, organism-based
Parameters: dose 1 mg/kg, route intravenous
Details: in vivo
Give bare numbers, in min.

CCOC(=O)C1=C(Nc2ccc3ccccc3c2)SCC1=O ... 18

From here, focus on the item given below.
Give its half-life value. Item: CCOC(=O)C1=C(Nc2ccc3ccccc3c2)OCC1=O 15.6

* * *

Tested on: Plasmodium falciparum
Assay: microbe, parasite or virus in culture
Conditions: 3D7, 72 h
Description: Antiplasmodial activity against chloroquine-sensitive Plasmodium falciparum 3D7 infected in erythrocytes assessed as parasite growth inhibition after 72 hrs by SYBR green 1 dye-based fluorometric analysis
Flag rule - IC50 less than 1000 nM flags satisfied; the remaining entries get not satisfied.

Some entries whose results are on file:
CCOC(=O)C1=C(Nc2ccc(Br)cc2C)SCC1=O ... not satisfied
Cc1ccc(NC2=C(C(=O)O)C(=O)CS2)cc1C ... not satisfied
CCOC(=O)C1=C(Nc2ccc(C(F)(F)F)cc2)OCC1=O ... satisfied
CCOC(=O)C1=C(Nc2ccc3c(c2)CCC3)OCC1=O ... satisfied
O=C1CSC(Nc2ccc3ccccc3c2)=C1C(=O)NC1CC1 ... not satisfied
CCOC(=O)C1=C(Nc2cnc3ccccc3c2)OCC1=O ... satisfied
Cc1ccc(NC2=CC(=O)CS2)cc1C ... not satisfied
CCNC(=O)C1=C(Nc2ccc(C)c(C)c2)SCC1=O ... not satisfied
CCNC(=O)C1=C(Nc2ccc3ccccc3c2)SCC1=O ... not satisfied
CCOC(=O)C1=C(Nc2cc(Cl)cc(Cl)c2)SCC1=O ... not satisfied

is_below(IC50, 1000 nM) for CCCCOC(=O)C1=C(Nc2ccc3ccccc3c2)SCC1=O ? not satisfied

Item CCOC(=O)C1=C(Nc2ccc(Cl)cc2)SCC1=O : IC50 beneath 1000 nM, strictly? not satisfied

Would you kindly verify if IC50 of CCOC(=O)C1=C(Nc2ccc3ccccc3c2)OCC1=O is strictly less than 1000 nM? satisfied

Item CCOC(=O)C1=C(Nc2ccc3c(c2)CCCC3)OCC1=O : IC50 beneath 1000 nM, strictly? satisfied

# TODO verify IC50 < 1000 nM strictly for this molecule: CCOC(=O)C1=C(Nc2ccccc2)SCC1=O not satisfied

Would you kindly verify if IC50 of CCOC(=O)C1=C(Nc2ccc(C)c(F)c2)SCC1=O is strictly less than 1000 nM? not satisfied

hey, is IC50 for CCCNC(=O)C1=C(Nc2ccc3ccccc3c2)SCC1=O lower than 1000 nM or not? not satisfied

Does the reported IC50 of COC(=O)C1=C(Nc2ccc3ccccc3c2)SCC1=O stay below 1000 nM? satisfied

Lab note: IC50 threshold 1000 nM. Does this molecule come in strictly under it? CCOC(=O)C1=C(Nc2ccc3c(c2)CCCC3)SCC1=O satisfied

Decide: IC50 of CCOC(=O)C1=C(Nc2ccc(C)c(C)c2)OCC1=O strictly below 1000 nM? satisfied

Problem: For the molecule O=C(O)C1=C(Nc2ccc3ccccc3c2)SCC1=O , is IC50 under 1000 nM? not satisfied

Is IC50 of CCOC(=O)C1=C(Nc2ccc(C(C)(C)C)cc2)SCC1=O strictly below 1000 nM? not satisfied

Identify whether the molecule CCOC(=O)C1=C(Nc2ccc(Br)c(C(F)(F)F)c2)SCC1=O records IC50 below 1000 nM. not satisfied

State whether 1000 nM exceeds IC50 recorded for CCOC(=O)C1=C(Nc2cnc3ccccc3c2)SCC1=O . satisfied

Given CCOC(=O)C1=C(Nc2ccc3c(c2)CCC3)SCC1=O , is recorded IC50 strictly lower than 1000 nM? not satisfied
